Tested on: Klebsiella pneumoniae ATCC BAA-2146
Assay: Inhibition of NDM1 in Klebsiella pneumoniae ATCC BAA-2146 assessed as potentiation of meropenem-induced microbial growth inhibition by cell-based synergy screening assay
Readout Type: fractional inhibitory concentration index (FICI)

Please review the entries below; each comes with its answer.
{"Substance Smiles": "N[C@@H](CN[C@@H](CN1CCC[C@H]1C(=O)O)C(=O)O)C(=O)O", "Observed": 2}
{"Substance Smiles": "N[C@H](CN[C@@H](CN[C@@H](CC(=O)O)C(=O)O)C(=O)O)C(=O)O", "Observed": "< 0.5"}
{"Substance Smiles": "N[C@@H](CN[C@@H](CN[C@@H](CC(=O)O)C(=O)O)C(=O)O)C(=O)O", "Observed": "< 0.28"}
{"Substance Smiles": "N[C@H](CN[C@H](CN[C@@H](CC(=O)O)C(=O)O)C(=O)O)C(=O)O", "Observed": "< 0.62"}
{"Substance Smiles": "N[C@@H](CN[C@H](CN[C@@H](CC(=O)O)C(=O)O)C(=O)O)C(=O)O", "Observed": "< 1"}
{"Substance Smiles": "C[C@H](CC(=O)O)NC[C@H](NC[C@H](N)C(=O)O)C(=O)O", "Observed": "< 1"}
{"Substance Smiles": "N[C@@H](CN[C@@H](CN1CCC[C@@H]1C(=O)O)C(=O)O)C(=O)O", "Observed": "< 1.5"}
{"Substance Smiles": "C[C@H](NC[C@H](NC[C@H](N)C(=O)O)C(=O)O)C(=O)O", "Observed": "< 1.5"}

I would be grateful if you could provide fractional inhibitory concentration index (FICI) for each of the following entries.
1. C[C@@H](CN[C@@H](CN[C@@H](CC(=O)O)C(=O)O)C(=O)O)C(=O)O
2. COC(=O)[C@H](CN[C@@H](CC(=O)O)C(=O)O)NC[C@H](N)C(=O)OC
3. COC(=O)C[C@H](NC[C@H](NC[C@H](N)C(=O)O)C(=O)O)C(=O)OC

result:
1: < 0.62; 2: 2; 3: 2

* * *

Tested on: Klebsiella pneumoniae
Assay: Growth inhibition of Klebsiella pneumoniae ATCC BAA-2146
Readout Type: MIC (µg/mL)
One number for each entry, in µg/mL.

{"Substance Smiles": "N[C@H](CN[C@H](CN[C@@H](CC(=O)O)C(=O)O)C(=O)O)C(=O)O", "Value Unit": "µg/mL", "Observed": 125}
{"Substance Smiles": "N[C@@H](CN[C@@H](CN[C@@H](CC(=O)O)C(=O)O)C(=O)O)C(=O)O", "Value Unit": "µg/mL", "Observed": 62.5}
{"Substance Smiles": "C[C@@H](CN[C@@H](CN[C@@H](CC(=O)O)C(=O)O)C(=O)O)C(=O)O", "Value Unit": "µg/mL", "Observed": 125}
{"Substance Smiles": "N[C@@H](CN[C@H](CN[C@@H](CC(=O)O)C(=O)O)C(=O)O)C(=O)O", "Value Unit": "µg/mL", "Observed": 125}

I would be grateful if you could provide MIC for each of the following entries.
1. N[C@H](CN[C@@H](CN[C@@H](CC(=O)O)C(=O)O)C(=O)O)C(=O)O
2. N[C@@H](CN[C@@H](CN1CCC[C@@H]1C(=O)O)C(=O)O)C(=O)O
3. C[C@H](CC(=O)O)NC[C@H](NC[C@H](N)C(=O)O)C(=O)O
4. C[C@H](NC[C@H](NC[C@H](N)C(=O)O)C(=O)O)C(=O)O

result:
62.5
406
125
250
